Overview of reported kon across a group of binders:
Biological target: T1, cynomolgus TREM2-Fc (cynomolgus monkey, UniProt A0A2K5UY34 49-204)
T1 construct: also called cyno TREM2; not shown: Fc part
T1 sequence: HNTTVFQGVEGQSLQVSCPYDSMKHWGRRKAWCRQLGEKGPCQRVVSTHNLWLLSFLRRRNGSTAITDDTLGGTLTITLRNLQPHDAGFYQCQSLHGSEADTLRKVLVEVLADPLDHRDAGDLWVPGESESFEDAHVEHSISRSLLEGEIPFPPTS
Experiment: SPR (Biacore T200), 37 C; TREM2-Fc on protein A chip, soluble Fab
REPORTED METRIC: kon (M⁻¹ s⁻¹)

BINDER	MEASUREMENT UNIT	RECORDED RESULT
h3.10C2.v1 Fab (Fab, V domains shown, also called 3.10C2-H1/3.27H7-L6) VH: EVQLVESGGGLVQPGGSLKLSCATSGFPFSNVWMHWVRQASGKGLEWIAHIKAKSDNYATYYAESVKGRFTISRDDSKTTIYLQMNSLKTEDTAVYYCTGLDYWGQGTTVTVSS VL: DVVMTQSPLSLPVTPGEPASISCRSSRSLLTSKGITSLYWYLQKPGQSPQLLIYRMSNLASGVPDRFSGSGSGTDFTLKISRVEAEDVGVYYCAQFLVYPYTFGQGTKVEIK	M⁻¹ s⁻¹	1.4e+06
Para.09 Fab with the 3.27H7 light chain (Fab, V domains shown, Fab fragment; also called Para.09 (3.27H7); Para.09-L27H7) VH: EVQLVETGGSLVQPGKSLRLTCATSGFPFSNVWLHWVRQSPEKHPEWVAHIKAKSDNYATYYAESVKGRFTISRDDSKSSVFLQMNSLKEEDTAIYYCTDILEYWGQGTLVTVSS VL: DVVLTQAPLSVSVTPGESASISCRSSRSLLTSKGITSLYWYLQKPGMSPHLLIYRMSNLASGIPDRFSGSGSETDFTLKISEVEPEDVGVYYCAQFLVYPYTFGAGTKLELK	M⁻¹ s⁻¹	2.3e+06
hPara.09.v2 Fab (Fab, V domains shown, also called Para.09-H5/3.27H7-L6) VH: EVQLVESGGGLVQPGGSLKLSCATSGFPFSNVWLHWVRQASGKGPEWVAHIKAKSDNYATYYAESVKGRFTISRDDSKNTVYLQMNSLKTEDTAVYYCTDILEYWGQGTLVTVSS VL: DVVMTQSPLSLPVTPGEPASISCRSSRSLLTSKGITSLYWYLQKPGQSPQLLIYRMSNLASGIPDRFSGSGSGTDFTLKISRVEAEDVGVYYCAQFLVYPYTFGQGTKVEIK	M⁻¹ s⁻¹	2.9e+06
3.10C2 Fab (Fab, V domains shown, also called 3.10C2 (3.10C2); Rat3.10C2) VH: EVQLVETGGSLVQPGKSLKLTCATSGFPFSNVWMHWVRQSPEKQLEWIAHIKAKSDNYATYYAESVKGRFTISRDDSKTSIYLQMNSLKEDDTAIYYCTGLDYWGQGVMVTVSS VL: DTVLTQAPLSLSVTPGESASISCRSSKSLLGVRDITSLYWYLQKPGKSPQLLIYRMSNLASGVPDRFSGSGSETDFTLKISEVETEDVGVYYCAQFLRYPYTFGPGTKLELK	M⁻¹ s⁻¹	910000
